AUC reference
Assay: Pharmacokinetics and oral bioavailability after IV and PO dosing
Assay type: in vivo, female CD-1 mice
Conditions: female, CD-1, mouse, plasma; 10 mg/kg oral suspension dose
Procedure: The objective of this study was to evaluate the pharmacokinetics and oral bioavailability of PDE4 inhibitors following intravenous (IV) administration and oral (PO) doses in female CD-1 mice. After dosing, blood samples were collected through 24 h, twice from each animal at specific times (3 mice/time point), into microcentrifuge tubes containing K2EDTA (anticoagulant), stored on wet ice and processed for plasma. […]

compound.structure.string: CC(C)OCCOc1nc(Oc2cc(F)c3c(c2)COB3O)cc(C(F)(F)F)c1C#N
AUC: 110000 ng·h/mL

compound.structure.string: CC(C)OCCOc1nc(Oc2ccc3c(c2)COB3O)cc(C(F)(F)F)c1C#N
AUC: 14900 ng·h/mL

compound.structure.string: CC(C)OCCOc1nc(Oc2ccc3c(c2)COB3O)c(C#N)cc1C#N
AUC: 3900 ng·h/mL

compound.structure.string: CC(=O)CCCOc1nc(Oc2ccc3c(c2)COB3O)cc(C(F)(F)F)c1C#N
AUC: 590 ng·h/mL

compound.structure.string: CC(=O)CCCOc1nc(Oc2ccc3c(c2)COB3O)c(C2CC2)cc1C#N
AUC: 5620 ng·h/mL

compound.structure.string: CC(C)OCCOc1nc(Oc2cc3c(cc2F)B(O)OC3)c(Cl)cc1C#N
AUC: 3300 ng·h/mL

compound.structure.string: CC(C)OCCOc1nc(Oc2ccc3c(c2)COB3O)ccc1C#N
AUC: 810 ng·h/mL
